Target: T1, GLP-1R (INS1e assay) (UniProt P32301 22-463, limits assumed)
T1 sequence (looked up): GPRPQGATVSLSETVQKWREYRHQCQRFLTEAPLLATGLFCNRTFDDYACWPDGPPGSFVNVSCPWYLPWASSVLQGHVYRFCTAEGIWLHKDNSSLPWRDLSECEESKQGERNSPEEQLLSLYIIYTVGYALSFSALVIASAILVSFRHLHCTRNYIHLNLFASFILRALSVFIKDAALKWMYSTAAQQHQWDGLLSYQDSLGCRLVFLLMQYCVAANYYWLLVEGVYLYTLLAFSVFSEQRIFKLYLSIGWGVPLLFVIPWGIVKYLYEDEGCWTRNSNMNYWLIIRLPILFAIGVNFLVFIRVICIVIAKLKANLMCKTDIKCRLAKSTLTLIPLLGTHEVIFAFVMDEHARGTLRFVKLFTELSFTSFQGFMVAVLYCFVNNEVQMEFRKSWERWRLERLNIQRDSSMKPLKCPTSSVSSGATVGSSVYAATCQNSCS
Assay: cell-based or functional assay
Starred links: 1 amine or outer side, 2 acyl side, 3 side chain; linkers in the order of their positions; H or OH if unused. Non-standard residues stand in square brackets, D forms with d. Groups on a side chain read outwards from the residue. Primed or numbered codes have the meaning given here. No end group written: not given here. *: point of attachment. γGlu = O=C(O)[C@H](CCC(=O)[*:2])N[*:1]; Stearoyl = CCCCCCCCCCCCCCCCCC(=O)*; αMeF = C[C@](N)(Cc1ccccc1)C(=O)O; αMeK = C[C@](N)(CCCCN)C(=O)O; αMeS = C[C@](N)(CO)C(=O)O; PEG2′ = not defined here; Aib = CC(C)(N)C(=O)O
RECORDED_ENDPOINT: INS1e assay EC50 Mean pM GLP-1R (pM)

>  <BINDER>
H[Aib]EGS[αMeF]TSDVSS[αMeF]LEGEAAK([PEG2′-PEG2′-PEG2′-Stearoyl])E[αMeF]IA[αMeF]VV[αMeK]GG-NH2 [SEQ ID NO 52]

>  <INS1e assay EC50 Mean pM GLP-1R / pM>
20

$$$$

(A) H[Aib]EGS[αMeF]TSDV[αMeS]S[αMeF]LEGEAA[αMeK]E[αMeF]IA[αMeF]K([PEG2′-PEG2′-γGlu-Stearoyl])V[αMeK]GG-NH2 [SEQ ID NO 103]
(B) H[Aib]EGS[αMeF]TSDVSK([PEG2′-PEG2′-γGlu-Stearoyl])YLEGEAA[αMeK]E[αMeF]IA[αMeF]VVEGG-NH2 [SEQ ID NO 60]
(C) H[Aib]EGSFTSDV[αMeS]S[αMeF]LEGEAAK([PEG2′-PEG2′-γGlu-Stearoyl])E[αMeF]IA[αMeF]VV[αMeK]GG-NH2 [SEQ ID NO 45]
Order the records so the highest INS1e assay EC50 Mean pM GLP-1R appears first and the lowest last. Put the labels in the requested order and write them down.
C, B, A
(C: 94600 pM, B: 13200 pM, A: 509 pM)
